Every entry's value here was drawn from paper PMC8285372.

- assay.target: HLA-A*03:01 (Homo sapiens, UniProt P04439)
- assay.name: p-HLA complex stability, scintillation proximity assay of β2-microglobulin dissociation
- Type: binding
Listed next: entries and their corresponding Experimental Stability (t1/2) Mean.

| ordered.residues | Experimental Stability (t1/2) Mean, h |
| --- | --- |
| RVKLSALTLK | 12.3 |
| ALNTITNLK | 10.6 |
| VLWDIPTPK | 4.7 |
| KLAQRRVFH | 3.5 |

###

- assay.target: HLA-A*11:01 (Homo sapiens, UniProt P04439, A114D/D185E/E176A/F33Y/L180Q/S129P/T187R)
- assay.name: p-HLA complex stability, scintillation proximity assay of β2-microglobulin dissociation
- Type: binding

| ordered.residues | assay.target | k, Setp #2 |
| --- | --- | --- |
| ASLPTTIAK | HLA-A*11:01 (Homo sapiens, UniProt P04439, A114D/D185E/E176A/F33Y/L180Q/S129P/T187R) | 0.0328 |
| KITDFGIAK [HLA-A*11:01 control, Serine/threonine-protein kinase PknA, Mycobacterium tuberculosis, IEDB 109407] | HLA-A*11:01 (Homo sapiens, UniProt P04439, A114D/D185E/E176A/F33Y/L180Q/S129P/T187R) | 0.0476 |
| TVNPIVTEK [HLA-A*11:01 control, Genome polyprotein, Dengue virus, IEDB 67094] | HLA-A*11:01 (Homo sapiens, UniProt P04439, A114D/D185E/E176A/F33Y/L180Q/S129P/T187R) | 0.0631 |
| VLWDIPTPK | HLA-A*11:01 (Homo sapiens, UniProt P04439, A114D/D185E/E176A/F33Y/L180Q/S129P/T187R) | 0.093 |

###

Catalogue of pIC50 readings, one per entry.
- assay.target: HLA-A*11:01 (Homo sapiens, UniProt P04439, A114D/D185E/E176A/F33Y/L180Q/S129P/T187R)
- assay.name: fluorescence polarization competitive peptide-binding assay
pIC50: −log10 of the molar value. No end group written: not given here.
test.readout: pIC50

| ordered.residues | test.readout | value.reported |
| --- | --- | --- |
| VVGARGVGK [Peptide 8-16R] | pIC50 | 6.20 |
| ALLAVGATK [gp17-25] | pIC50 | 6.65 |
| VVVGARGVGK [Peptide 7-16R] | pIC50 | 6.25 |

###

- assay.target: HLA-A*03:01 (Homo sapiens, UniProt P04439)
- assay.name: p-HLA complex stability, scintillation proximity assay of β2-microglobulin dissociation
- Format: binding

| ordered.residues | Half_life, Setp #1 [h] |
| --- | --- |
| KLAQRRVFH | 3.5 |
| RVKLSALTLK | 11.6 |
| VLWDIPTPK | 4.5 |
| ALNTITNLK | 11.4 |

###

IC50: recorded values
- assay.target: HLA-B*07:02 (Homo sapiens, UniProt P01889)
- assay.name: fluorescence polarization competitive peptide-binding assay
- test.conditions: Experimental Affinity IC50
No end group written: not given here.

| ordered.residues | IC50, µM |
| --- | --- |
| GRAFVTIGK | 0.371 |
| GAGGVGKSAL [Peptide 10-19] | 76.9 |

###

Entries and their measured k, Setp #2 follow.
- assay.target: HLA-A*03:01 (Homo sapiens, UniProt P04439)
- assay.name: p-HLA complex stability, scintillation proximity assay of β2-microglobulin dissociation
- Assay type: binding

| ordered.residues | k, Setp #2 |
| --- | --- |
| RVKLSALTLK | 0.053 |
| VLWDIPTPK | 0.1427 |
| KLAQRRVFH | 0.1902 |
| ALNTITNLK | 0.0711 |

###

- assay.target: HLA-A*03:01 (Homo sapiens, UniProt P04439)
- assay.name: fluorescence polarization competitive peptide-binding assay
- test.conditions: Experimental Affinity IC50
No end group written: not given here.

| ordered.residues | IC50 |
| --- | --- |
| VVVGARGVGK [Peptide 7-16R] | 3.24 µM |
| VVGARGVGK [Peptide 8-16R] | 5.3 µM |
| ALLAVGATK [gp17-25] | 0.962 µM |

###

- assay.target: HLA-A*11:01 (Homo sapiens, UniProt P04439, A114D/D185E/E176A/F33Y/L180Q/S129P/T187R)
- assay.name: p-HLA complex stability, scintillation proximity assay of β2-microglobulin dissociation
- Type: binding
test.readout: Experimental Stability (t1/2) Mean (h)

| ordered.residues | assay.target | value.reported |
| --- | --- | --- |
| ASLPTTIAK | HLA-A*11:01 (Homo sapiens, UniProt P04439, A114D/D185E/E176A/F33Y/L180Q/S129P/T187R) | 22.5 |
| VLWDIPTPK | HLA-A*11:01 (Homo sapiens, UniProt P04439, A114D/D185E/E176A/F33Y/L180Q/S129P/T187R) | 8 |
| KITDFGIAK [HLA-A*11:01 control, Serine/threonine-protein kinase PknA, Mycobacterium tuberculosis, IEDB 109407] | HLA-A*11:01 (Homo sapiens, UniProt P04439, A114D/D185E/E176A/F33Y/L180Q/S129P/T187R) | 15.6 |
| TVNPIVTEK [HLA-A*11:01 control, Genome polyprotein, Dengue virus, IEDB 67094] | HLA-A*11:01 (Homo sapiens, UniProt P04439, A114D/D185E/E176A/F33Y/L180Q/S129P/T187R) | 11.4 |

###

In this section, each of the sequences is paired with its reported IC50.
- assay.target: HLA-A*02:01 (Homo sapiens, UniProt P04439, D140Y/D185E/D98H/E176V/E277Q/G131W/G231S/I119V/I121R/I166T/I218V/L300P/L318F/N151K/N90K/P208A/P217A/Q86G/Q94H/R138H/R169H/T345S)
- assay.name: fluorescence polarization competitive peptide-binding assay
No end group written: not given here.
test.readout: IC50 (µM)

| ordered.residues | test.readout | u | value.reported |
| --- | --- | --- | --- |
| KLVVVGAGGV [Peptide 5-14] | IC50 | µM | 10.9 |
| KLVVVGARGV [Peptide 5-14R] | IC50 | µM | 20.7 |

###

- assay.target: HLA-A*03:01 (Homo sapiens, UniProt P04439)
- assay.name: fluorescence polarization competitive peptide-binding assay
- test.conditions: Experimental Affinity log10[IC50]
pIC50: −log10 of the molar value. No end group written: not given here.
test.readout: pIC50

| ordered.residues | value.reported |
| --- | --- |
| VVVGARGVGK [Peptide 7-16R] | ≥ 8.45 |

###

- assay.target: HLA-A*03:01 (Homo sapiens, UniProt P04439)
- assay.name: p-HLA complex stability, scintillation proximity assay of β2-microglobulin dissociation
- Assay type: binding

| ordered.residues | Half_life, Setp #2 / h |
| --- | --- |
| ALNTITNLK | 9.7 |
| RVKLSALTLK | 13.1 |
| VLWDIPTPK | 4.9 |
| KLAQRRVFH | 3.6 |

###

- assay.target: HLA-A*11:01 (Homo sapiens, UniProt P04439, A114D/D185E/E176A/F33Y/L180Q/S129P/T187R)
- assay.name: p-HLA complex stability, scintillation proximity assay of β2-microglobulin dissociation
- Format: binding
Half_life, Setp #1: recorded values

| ordered.residues | Half_life, Setp #1, h |
| --- | --- |
| ASLPTTIAK | 23.8 |
| TVNPIVTEK [HLA-A*11:01 control, Genome polyprotein, Dengue virus, IEDB 67094] | 11.8 |
| KITDFGIAK [HLA-A*11:01 control, Serine/threonine-protein kinase PknA, Mycobacterium tuberculosis, IEDB 109407] | 16.7 |
| VLWDIPTPK | 8.4 |
